Values from ChEMBL document CHEMBL1145199

Tested on: Human immunodeficiency virus 1
assay_info: Inhibitory concentration against 100I and 103N mutant strains was determined
Assay type: functional, organism-based
pIC50: −log10 of the molar value.
readout: pIC50

Need pIC50 of `O=C1Nc2ccc(Cl)cc2[C@@](C#CC2CC2)(C(F)(F)F)O1` , thanks.
< 5.00

====

Reported log10(IC50) is given for each of the following molecules.
System: Human immunodeficiency virus 1
assay_info: Inhibitory concentration against 100I mutant was determined
Type: functional, organism-based
measurement_conditions: Human immunodeficiency virus 1; read-out: IC50
// do not treat as linear: log10 of IC50, unit µM

Guide cases for log10(IC50), answers given:
{"given_smiles": "Cc1cc(C)c(S(=O)(=O)c2nc(Nc3ccc(C#N)cc3)c(=O)n(C)c2C)c(C)c1", "test_result": -1.60}
{"given_smiles": "Cc1ccccc1Sc1nc(Nc2ccc(C#N)cc2)c(O)nc1C", "test_result": 0.70}
{"given_smiles": "Cc1ccccc1Oc1nc(Nc2ccc(C#N)cc2)c(=O)n(C)c1C", "test_result": -0.40}
{"given_smiles": "Cc1ccc(Oc2nc(Nc3ccc(Cl)cc3)c(=O)n(C)c2C)c(C)c1", "test_result": 0.60}

Endpoint output: log10(IC50) of `Cc1ccccc1Oc1cn(C)c(=O)c(Nc2ccc(C#N)cc2)n1` . Value?
0.10
